System: MCF7 breast
Assay: NCI-60 one-dose screen, 48 h (100 = growth as untreated, 0 = no growth, -100 = all killed)
Details: 10 µM
Description: Growth inhibition of the MCF7 human tumor cell line is measured as a screen for anti-cancer activity. Cells are grown in 96 well plates and exposed to the test compound for 48 hours. Compounds are tested at a single concentration, which is 10^-5 M for most compounds. The reported endpoint is percent growth (GI% or GIPRCNT), where numbers from 0 - 100% represent growth inhibition, and numbers from -100% - 0 represent cell death. For example, a value of 40 represents 60% growth inhibition. […]
This is part of a sample that, as a whole, favours compounds with a hit. Of some 83,000 tested, about 20% had one in any assay. Active and inactive are the calls of the source. Rule for the calls: active = growth percent below 10; inactive = the rest.
Here the recorded growth is given for each entry.

Use these answered entries as a reference point.
O=[N+]([O-])c1ccc(N/N=C/c2cccc3ccccc23)nc1: 75.6% (inactive)
Clc1ccc(Nc2ccnc(NCCCNc3ccnc4cc(Cl)ccc34)n2)cc1: -89.8% (active)
Clc1cc2c(c(CSc3nc4ccccc4n4cccc34)c1)OCOC2: 8.11% (active)
Nc1c(C(=O)Nc2ccccc2Cl)sc2nc3c(cc12)C(=O)CCC3: 16.1% (inactive)

Now examine the next entry.
# lookup: growth of O=S(=O)(NCCCNc1nccc(-c2c(-c3ccc(F)cc3)nc3sccn23)n1)c1ccc2ccccc2c1
30.3% (inactive)
